test.method.notes: Tmax in Sprague-Dawley rat at 1 mg/kg, iv
Type: ADME, organism-based
study.conditions: in vivo

[
  {
    "record.smiles": "COc1ccc(-c2cc(=O)c3ccc(NS(=O)(=O)c4ccc(F)cc4)cc3o2)cc1",
    "Tmax, min": 10.2
  }
]

---

test.method.notes: Tmax in Sprague-Dawley rat at 10 mg/kg, po
Format: ADME, organism-based
study.conditions: in vivo
measurement.type: Tmax

[
  {
    "record.smiles": "COc1ccc(-c2cc(=O)c3ccc(NS(=O)(=O)c4ccc(F)cc4)cc3o2)cc1",
    "value": "1.5 h"
  }
]

---

test.method.notes: Drug concentration in plasma of APAP-induced acute liver injury male C57BL/6 mouse model at 25 mg/kg, ip pre-administered with compound for 1 hr followed by APAP induction and measured after 12 hrs by Mass spectrometric analysis
Assay type: ADME, organism-based
measurement.type: concentration at 13 h (ng/mL)

[
  {
    "record.smiles": "COc1ccc(-c2cc(=O)c3ccc(NS(=O)(=O)c4ccc(F)cc4)cc3o2)cc1",
    "measurement.type": "concentration at 13 h",
    "value": 155
  }
]

# credit: ChEMBL document CHEMBL6182905
